test: soluble fraction after stress (log2 fold change); higher = more stays soluble; pooled small domains, quantitative proteomics; conditions: stress: 50 degC
MEASUREMENT_TYPE: soluble fraction (log2)
Write the number on its own, no unit after it.

A selection of reference data follows.
INSERT INTO measurements (sequence_content, recorded_value) VALUES
  ('HMSSIGERISDVRKARGYTQDQLAERIHVSRQTISHWENERALPDFESIKQLSQVLGYDFSS', -0.00328),
  ('HMDAAYVYVIGTRVNQRAGPSTSNAVMGVLSEGTRVETLRDEGQWTQIRSNFGTGWMSSSFLSSVAP', -1.55);

Ask: # soluble fraction (log2) lookup, item HMKIVFGHVKWFDIDKGFGFLVLEDEGGDVLLHANVLKNFGRTSVSEDTKIEFEFLETDKGRQVSTIYNIL
Reply: -3.85

Ask: What value of measured soluble fraction (log2) is listed for HMNGEAQTMYVTARTLNVRKGPGTSYAKAGTLSRGTAVQVVGFSGNWAKLSNGYYVSTSYLAKI ?
Reply: -1.32

Ask: Value lookup for soluble fraction (log2); key = HMADEIMYPVQVNGKVRAEIFVAADQSKNKELVLEMAKSEERVQKYLEEGNLIKEIFVPGRIVNLVI
Reply: 0.0273

Ask: Look up soluble fraction (log2) for this sequence: HMFIPGDSVRVHVKVVEGSNERIQMFEGVVIARQGSGVRENFTVRRISYGVGIERTFPVHSPRL
Reply: 0.103

Ask: Item HMEDIPENIRYKFLLKELKENEHLNILDKENIARKLTEIDLPELEKELLENEILNSTIKDYLGIKLV has what recorded soluble fraction (log2)?
Reply: 0.173

Ask: Reported soluble fraction (log2) for HMTLGENLQNLRKEAGLSQEQVAQQLFVSRQTVSKWENNLAEPGVENLKALARLYGVTLDRLVGM : what is it?
Reply: -0.0572

====

test: soluble fraction after stress (log2 fold change); higher = more stays soluble; pooled small domains, quantitative proteomics; conditions: stress: 50 degC
MEASUREMENT_TYPE: soluble fraction (log2)
No unit in the answer, please; the number alone is enough.

Guide cases for soluble fraction (log2), answers given:
INSERT INTO assay_data (sequence_content, recorded_value) VALUES
  ('HMTRQPSAKEHAVLTAVKEGLRRDGRAPTVRALADMTGAASTSTVQRRISALIDLGLLRRTDGTLEVVE', -0.000402),
  ('HMTKYKEIVDQLRTNIYEGVFPALSKLPEQTALAKRFQTSRMTIQKALNQLKQEGLISTKRGHGTYVNSAT', -0.298),
  ('HMSENDTILAKFVSVMGNKNLELVIFPDIAYLKGQVSNPEDKTKAETVAQSLLGGKPLVSLIEFE', 0.218),
  ('HMTSNSLNLKDEISAFLTKNAGISYSAERIAHALNMDNADQFTPIIQTLAQLEREKKVRVTDKGEFEAVIK', 0.0897),
  ('HMYELSDTEWKIIEQVGLGASNKEIAASLHFSEGTIRNYLSVILDKLSLRDRTQLAILYVKMN', -0.058);

Ask: Given the entry HMIVVMQPGATKEQVQAVIDRVAEFGFQTKLAPGAERMVIGVVGSPLPDTLKEALERLPGVEEVIRVSKR , report its measured soluble fraction (log2).
Reply: -0.0691

Ask: Consider the sequence shown here: HMEGNFFADIRQELMRELDQEAEWSDVQILEKIDDLVLLRTRRSSLTVNEKEQLRKELFYSVRK What is its recorded soluble fraction (log2)?
Reply: -0.0909

Ask: For HMDGIDALEPLMRRVFEALPQRRSMTIERAAVAAGLDEESVKIALVRLQLEGYVANDERGWHRSKSPH , what is its reported soluble fraction (log2)?
Reply: -0.911

Ask: What soluble fraction (log2) value was documented for this sequence, HMHGEAVVVPNVKGLPMRQAENEIYKQSLKAVAIDSSYVKGMPPGAILEQNPAGGSKVKKGRTVYLTINMD ?
Reply: -0.0918

Ask: Requested field: soluble fraction (log2). Item: HMQNYNLTQQEKKVLQLLVSGKSYKMIAAELNVAFDTVKSHITNIYSKLHVHSGTEAVSVAIRDKI
Reply: -0.444

Ask: Record request: soluble fraction (log2) value, item HMSPDTREAILAAARTAFARDGYQTSLRGIARDAGVDPALVHHYFPDRATLFAKAVIESTAG
Reply: -0.00189

Ask: // returns reported soluble fraction (log2) for input HMKLVESALSILEEAVDRDFHGNLGDAARYFDIPYQTIYSWLKSRKRVPSLRALEPVLEKLGVSFTT
Reply: -0.896
